biological target: human recombinant MAOA enzyme (hMAOA) (Homo sapiens); construct: purchased; test: Human recombinant MAOA enzyme activity (Amplex Red, fluorimetric); type: biochemical; conditions: read-out: IC50 (EC50), (µM ± SD) hMAOA
Sequence (P21397 whole entry): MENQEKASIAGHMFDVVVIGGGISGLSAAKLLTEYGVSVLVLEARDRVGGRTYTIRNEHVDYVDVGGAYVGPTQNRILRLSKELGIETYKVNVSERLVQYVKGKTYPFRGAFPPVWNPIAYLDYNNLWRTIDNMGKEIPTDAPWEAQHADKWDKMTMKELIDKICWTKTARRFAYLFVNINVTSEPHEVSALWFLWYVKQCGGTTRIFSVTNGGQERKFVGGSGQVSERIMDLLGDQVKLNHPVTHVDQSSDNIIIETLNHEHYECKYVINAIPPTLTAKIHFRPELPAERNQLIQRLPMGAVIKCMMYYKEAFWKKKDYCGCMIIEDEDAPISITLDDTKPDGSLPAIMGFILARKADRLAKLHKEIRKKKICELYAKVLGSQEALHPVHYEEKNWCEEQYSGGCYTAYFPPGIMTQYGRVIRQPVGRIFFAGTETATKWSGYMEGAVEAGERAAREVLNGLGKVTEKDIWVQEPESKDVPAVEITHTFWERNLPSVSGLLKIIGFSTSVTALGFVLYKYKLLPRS
Listed below: IC50 values for each entry.

Known IC50 results, listed for orientation:
molecule="CCOC(=O)c1cc(-c2ccc(Br)cc2)n(CCCC(=O)N/N=C/c2cccc(F)c2)c1C [15d]" reading="> 200 µM"
molecule="CCOC(=O)c1cc(-c2ccc(Br)cc2)n(CCCC(=O)N/N=C/c2ccc(N(C)C)cc2)c1C [15f]" reading="0.821 µM"

Switching to the query record.
Query: IC50; subject: CCOC(=O)c1cc(-c2ccc(Br)cc2)n(CCCC(=O)N/N=C/c2ccccc2)c1C [15a]
> 200 µM

---

tested on: rat brain mitochondria; assay: MDA production in brain mitochondria, substances applied alone; format: cell-based; conditions: 100 µM, vs untreated mitochondria
The following molecules are listed with their measured increase of MDA production in brain mitochondria vs control values.
Field format: number, assumed %, no unit text.

Please review the entries below; each comes with its answer.
molecule="CCOC(=O)c1cc(-c2ccc(Br)cc2)n(CCCC(=O)N/N=C/c2ccc(N(C)C)cc2)c1C [15f]" targetdesc="rat brain mitochondria" reading=69
molecule="CCOC(=O)c1cc(-c2ccc(Br)cc2)n(CCCC(=O)N/N=C/c2ccccc2)c1C [15a]" targetdesc="rat brain mitochondria" reading=59
molecule="CCOC(=O)c1cc(-c2ccc(Br)cc2)n(CCCC(=O)N/N=C/c2cccc(F)c2)c1C [15d]" targetdesc="rat brain mitochondria" reading=57
molecule="CCOC(=O)c1cc(-c2ccc(Br)cc2)n(CCCC(=O)N/N=C/c2cccc(C=O)c2)c1C [15g]" targetdesc="rat brain mitochondria" reading=143
molecule="CCOC(=O)c1cc(-c2ccc(Br)cc2)n(CCCC(=O)N/N=C/c2ccccc2O)c1C [15b]" targetdesc="rat brain mitochondria" reading=99
molecule="CCOC(=O)c1cc(-c2ccc(Br)cc2)n(CCCC(=O)O)c1C [compound 13]" targetdesc="rat brain mitochondria" reading=79
molecule="CCOC(=O)c1cc(-c2ccc(Br)cc2)n(CCCC(=O)NN)c1C [compound 15]" targetdesc="rat brain mitochondria" reading=73
molecule="CCOC(=O)c1cc(-c2ccc(Br)cc2)n(CCCC(=O)N/N=C/c2ccccc2F)c1C [15c]" targetdesc="rat brain mitochondria" reading=110

Okay, next one:
Given CCOC(=O)c1cc(-c2ccc(Br)cc2)n(CCCC(=O)N/N=C/c2ccc(OC)cc2)c1C [15e] , state its recorded increase of MDA production in brain mitochondria vs control.
119

---

system: rat brain microsomes; assay: MDA production in brain microsomes, substances applied alone; assay type: cell-based; settings: 100 µM, vs untreated microsomes
measuredMetric: increase of MDA production in brain microsomes vs control (%)
Unit % implied. Number only.

molecule="CCOC(=O)c1cc(-c2ccc(Br)cc2)n(CCCC(=O)N/N=C/c2ccccc2F)c1C [15c]" reading=132

What value of increase of MDA production in brain microsomes vs control has been reported for the following molecule? CCOC(=O)c1cc(-c2ccc(Br)cc2)n(CCCC(=O)N/N=C/c2ccccc2)c1C [15a]
52

Quick one: increase of MDA production in brain microsomes vs control of CCOC(=O)c1cc(-c2ccc(Br)cc2)n(CCCC(=O)N/N=C/c2cccc(F)c2)c1C [15d] ?
63

Any idea what its increase of MDA production in brain microsomes vs control is? The molecule is CCOC(=O)c1cc(-c2ccc(Br)cc2)n(CCCC(=O)N/N=C/c2ccc(N(C)C)cc2)c1C [15f]
67

Reported increase of MDA production in brain microsomes vs control for CCOC(=O)c1cc(-c2ccc(Br)cc2)n(CCCC(=O)N/N=C/c2cccc(C=O)c2)c1C [15g] : what is it?
158

Reported increase of MDA production in brain microsomes vs control, molecule `CCOC(=O)c1cc(-c2ccc(Br)cc2)n(CCCC(=O)O)c1C` : ____
93

# increase of MDA production in brain microsomes vs control lookup, item CCOC(=O)c1cc(-c2ccc(Br)cc2)n(CCCC(=O)N/N=C/c2ccccc2O)c1C [15b]
121

Need increase of MDA production in brain microsomes vs control, item CCOC(=O)c1cc(-c2ccc(Br)cc2)n(CCCC(=O)N/N=C/c2ccc(OC)cc2)c1C [15e]
149
